Entry source: patent US20200247855A1

- system: CXCL13
- protocol.summary: BLI
Kd values for the binders below.
readout.name: Kd (nM)

>>> observed_measurement("P1090_IXORI (other) GSKELSGPESSENSIEAAFCDTNCTEGTDGVWSGCSAGCFCVHVGNSTVGRCMTFNGVDGG")
12.5
>>> observed_measurement("P1086_IXORI (other) GSKGQRASQVSETSITAEFCDTSCTQGTDKTWSGCSGDCFCVHVGNDTEGRCMRWDGDYPSAEEEE")
22.7
>>> observed_measurement("P1074_IXORI (other) GSKESSAHQSSDDSIKAEFCDAKCTMKTDGKWTQCHGGCFCVHVGNETEGRCMRLDGDYDYPSTQPEE")
95.8
>>> observed_measurement("P1080_IXORI (other) SAGSKGSSAPQSSGDSVVAEFCDTNCTMKKDGKWTECNGDCFCVHVGNETVGRCMRLDGDYDYTSSKTTRRNKKTRNGLCRLDRNRTTVDYPERNTREP")
1110
>>> observed_measurement("P458_IXORI (other) GSKQPGAAGSSSDSVEAVFCPTNCTKGTNGAWSGCSDDCICVHVGENTEGSCMKFSGDYDYPTPEA")
13.8
>>> observed_measurement("P1100_IXORI (other) GSKGSSASQSSDNSVVAKFCDTNCTINEGGKWTECKGGCFCVHVGNETVGRCMKLDGDYDYPSPKPEE")
714
>>> observed_measurement("P1104_IXORI (other) ESKEASASQGPGKSFKVEFCETNCTENNGVWSGCTGDCICVSVGDSKEGRCMDLGDKVIDTPVAQG")
220
>>> observed_measurement("P1124_IXORI (other) DSKGTSDSQDSTKSIKVDFCETNCTKTDGGWTGCTGDCICVSVGDSIEGRCMDFG")
256
>>> observed_measurement("P675_IXORI (other) GSNQLSGPQSSANSNDAVFCDTNCTQGTDGAWSGCRGDCFCVHVGNSTEGRCIELIGDFDYSTPGAED")
582
>>> observed_measurement("P942_IXORI (other) NQLSGPQSSANSNEAVFCDTNCTQGTDEAWSGCRGDCFCVYVGNSTEGRCMMLSGDFDYSTPGAED")
39.5
>>> observed_measurement("P1078_IXORI (other) GSKGSSAQQSSHDSIKAEFCETNCTMKTGGKWTQCHGGCFCVHVGNETVGRCIKLDGDYDYPSSKHEE")
255
